Target: Calpain-1 catalytic subunit (Homo sapiens, UniProt P07384)
Sequence (P07384 whole entry): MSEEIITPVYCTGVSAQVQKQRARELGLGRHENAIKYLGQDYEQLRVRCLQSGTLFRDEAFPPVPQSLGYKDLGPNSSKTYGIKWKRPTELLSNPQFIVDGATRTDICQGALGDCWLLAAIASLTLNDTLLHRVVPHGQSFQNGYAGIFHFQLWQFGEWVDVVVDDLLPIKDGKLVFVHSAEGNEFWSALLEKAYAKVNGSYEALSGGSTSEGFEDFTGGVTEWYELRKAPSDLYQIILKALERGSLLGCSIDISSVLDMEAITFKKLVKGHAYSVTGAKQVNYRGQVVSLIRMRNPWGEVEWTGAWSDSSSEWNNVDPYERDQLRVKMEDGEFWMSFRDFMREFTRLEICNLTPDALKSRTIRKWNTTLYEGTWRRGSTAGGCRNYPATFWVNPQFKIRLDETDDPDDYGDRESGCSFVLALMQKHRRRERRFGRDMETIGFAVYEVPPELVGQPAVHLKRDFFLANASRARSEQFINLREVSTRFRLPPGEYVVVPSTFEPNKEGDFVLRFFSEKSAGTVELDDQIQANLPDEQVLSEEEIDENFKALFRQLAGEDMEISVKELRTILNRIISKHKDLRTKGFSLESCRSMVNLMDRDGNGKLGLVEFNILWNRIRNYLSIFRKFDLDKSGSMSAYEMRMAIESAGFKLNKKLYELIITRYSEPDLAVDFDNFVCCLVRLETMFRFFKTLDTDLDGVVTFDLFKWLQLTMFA
Experiment: Inhibition of calpain (unknown origin) using Suc-LY-AMC as fluorogenic substrate after 60 mins by spectrofluorometric analysis
Each record is given yes if its reported IC50 is strictly below 0.5 µM. Records at or above 0.5 µM are given no.

| smiles_code | assigned_category |
| --- | --- |
| COCCN/C(=C1/N=CN(CCOC)C1=O)c1[nH]c2ccccc2c1Br | no |
| COCCN/C(=C1/N=C(C)N(CCOC)C1=O)c1cc2ccccc2[nH]1 | yes |
| COCCN/C(=C1/N=CN(CCOC)C1=O)c1[nH]c2ccccc2c1I | no |
| CC(C)N/C(=C1/N=CN(C(C)C)C1=O)c1cc2ccccc2[nH]1 | no |
| COCCN/C(=C1/N=CN(CCOC)C1=O)c1[nH]c2ccccc2c1Cl | no |

Would you kindly verify if IC50 of COCCN/C(=C1/N=CN(CCOC)C1=O)c1cc2ccccc2[nH]1 is strictly less than 0.5 µM?
yes

Would you kindly verify if IC50 of CCCCN/C(=C1/N=CN(CCOC)C1=O)c1cc2ccccc2[nH]1 is strictly less than 0.5 µM?
yes

Would you kindly verify if IC50 of COCCN/C(=C1/N=CN(CCOC)C1=O)c1cc2cccnc2[nH]1 is strictly less than 0.5 µM?
yes

Would you kindly verify if IC50 of COCCN1C=N/C(=C(/NCCN(C)C)c2cc3ccccc3[nH]2)C1=O is strictly less than 0.5 µM?
no

Would you kindly verify if IC50 of COCCN/C(=C1/N=C(c2ccccc2)N(CCOC)C1=O)c1cc2ccccc2[nH]1 is strictly less than 0.5 µM?
no

Would you kindly verify if IC50 of COCCCN/C(=C1/N=CN(CCOC)C1=O)c1cc2ccccc2[nH]1 is strictly less than 0.5 µM?
no
